The reported measurements were obtained from paper PMC11062922.

Tested on: PKN3;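 further: NanoBRET target engagement in HEK293T cells transiently expressing full-length PKN3 with C-terminal NanoLuc, displacement of fluorescent tracer K5 (500 nM), BRET read after 2 h equilibration at 37 °C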
Conditions: read-out: Rep 3; hek293t cells
measured.attribute: pIC50
// pIC50 here means minus log10 of the molar concentration (mol/L)

Consider the worked cases shown below.
# get_value(readout='pIC50', item= CCn1c(-c2nonc2N)nc2c(C#CCN)ncc(OCCCN)c21.O=C(O)C(F)(F)F [GSK561866B] )
5.31

Next entry: CCn1c(-c2nonc2N)nc2c(-c3ccccc3)ncc(OCCCN)c21.CCn1c(-c2nonc2N)nc2c(-c3ccccc3)ncc(OCCCN)c21.O=C(O)C(F)(F)F.O=C(O)C(F)(F)F [GSK260205A]
8.21

Further cases:
Which measured pIC50 value corresponds to `Cl.NCc1ccc(-c2nc(-c3ccc(Cl)c(O)c3)c(-c3ccncc3)[nH]2)cc1` ?
7.06

Cool, now CCn1c(-c2nonc2N)nc2c(C#CC(C)(C)O)nc(OCCN)cc21.CCn1c(-c2nonc2N)nc2c(C#CC(C)(C)O)nc(OCCN)cc21.Cl.Cl [GSK902056A]
7.57
